Data credit: PubChem BioAssay (NCI)

Answer each item with its documented growth inhibition.
- PROTOCOL SUMMARY: NCI Yeast Anticancer Drug Screen. Data for the cln2 rad14 strain (AID 165);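 further: 0% = growth equal to vehicle treated cultures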
- REPORTED CONDITIONS: S. cerevisiae cln2 rad14 strain, at 50.0 µM (retest, dose inferred, filed as 5.0), stronger effect = higher value
The panel holds about 79,000 compounds, 15% with a hit somewhere; the sample as a whole holds those more often.
Give the value, in units of %, as a plain number.

Incoming: Could you share which growth inhibition value was measured for O=C1/C(=C(/Br)I)c2ccccc2-c2ccccc21 ?
Outgoing: 90

Incoming: Could you share which growth inhibition value was measured for O=[N+]([O-])c1ccc(C2=Nn3cnnc3SC2)o1 ?
Outgoing: 29

Incoming: Could you share which growth inhibition value was measured for CCCC/C(=C\c1cc(Cl)c(O)c(Cl)c1)C(=O)O ?
Outgoing: 76

Incoming: Could you share which growth inhibition value was measured for NC(N)=N/N=C(\c1ccc(F)cc1)c1ccc(C(F)(F)F)cc1 ?
Outgoing: 93

Incoming: Could you share which growth inhibition value was measured for NC(=S)N/N=C1\NC(=O)/C(=C/c2ccc3c(c2)OCO3)S1 ?
Outgoing: 11

Incoming: Could you share which growth inhibition value was measured for C/C(=N\NC(=S)N1CCN(C2CCCCC2)CC1)c1ccccn1 ?
Outgoing: 59

Incoming: Could you share which growth inhibition value was measured for Cc1ccc(SCC#CC#CCS(=O)c2ccc(C)cc2)cc1 (stereo not given) ?
Outgoing: 98

Incoming: Could you share which growth inhibition value was measured for Cc1ccc(O)c(N=Nc2ccc(Cl)cc2)c1 ?
Outgoing: -8

Incoming: Could you share which growth inhibition value was measured for O=[N+]([O-])c1ccc(Sc2ccsc2)c([N+](=O)[O-])c1 ?
Outgoing: 61

Incoming: Could you share which growth inhibition value was measured for CC1(c2cccs2)C(C#N)(C#N)C1(C#N)C#N ?
Outgoing: 30

Incoming: Could you share which growth inhibition value was measured for Cc1ccc(/C=C2\CCC/C(=C\c3ccc(O)c(CN4CCCCC4)c3)C2=O)cc1 ?
Outgoing: 27

Incoming: Could you share which growth inhibition value was measured for COc1ccc(N=Cc2cc(Br)cc(Br)c2O)cc1.COc1ccc(N=Cc2cc(Br)cc(Br)c2O)cc1.[Co] ?
Outgoing: 66

Incoming: Could you share which growth inhibition value was measured for Clc1ccnc2c1ccc1c(Cl)ccnc12 ?
Outgoing: -10

Incoming: Could you share which growth inhibition value was measured for O=S1(=O)CCc2ccccc2C(Br)C1Br (stereo not given) ?
Outgoing: 99

Incoming: Could you share which growth inhibition value was measured for O=C1OC(c2ccc3c(c2)OCO3)Sc2ccccc21 (stereo not given) ?
Outgoing: 4

Incoming: Could you share which growth inhibition value was measured for O=C1CCC(Cc2ccc(Br)cc2)C(=O)N1 (stereo not given) ?
Outgoing: 3

Incoming: Could you share which growth inhibition value was measured for CCCCP(CCCC)(CCCC)=C(C(=O)OC)C(C(=O)OC)=C1SC(C(=O)OC)=C(C(=O)OC)S1 ?
Outgoing: 38

Incoming: Could you share which growth inhibition value was measured for COC1OC(=O)CC1C1CC=C2C3CCC4CC(O)CCC4(C)C3CCC21C (stereo not given) ?
Outgoing: 77

Incoming: Could you share which growth inhibition value was measured for O=C1OC(=O)c2ccc(S)c3cccc1c23 ?
Outgoing: 68

Incoming: Could you share which growth inhibition value was measured for CC(C)(C)N1OC2(c3ccccc3)OC3N(C(C)(C)C)OC4(c5ccccc5)OC1C2(c1ccccc1)C34c1ccccc1 (stereo not given) ?
Outgoing: 99

Incoming: Could you share which growth inhibition value was measured for Nc1cc2c(cc1/C=C(\C(=O)O)c1ccccc1)OCO2 ?
Outgoing: 9

Incoming: Could you share which growth inhibition value was measured for CCC1CCC2=C(C1)C(=O)c1ccccc1C2=O (stereo not given) ?
Outgoing: 71

Incoming: Could you share which growth inhibition value was measured for CC(C)C[P+](c1ccccc1)(c1ccccc1)c1ccccc1 ?
Outgoing: 10

Incoming: Could you share which growth inhibition value was measured for O=C(Cc1ccccc1)c1ccccc1C(=O)NNc1ccccc1 ?
Outgoing: 61

Incoming: Could you share which growth inhibition value was measured for Clc1ccc(Oc2nc(Cl)nc3[nH]ncc23)cc1 ?
Outgoing: 32

Incoming: Could you share which growth inhibition value was measured for Nc1ccc(SC23CC4CC(CC(C4)C2)C3)cc1 ?
Outgoing: 61

Incoming: Could you share which growth inhibition value was measured for [N-]=[N+]=Nc1c(-c2ccccc2)c(=O)n(-c2ccccc2)c2ccccc12 ?
Outgoing: 95

Incoming: Could you share which growth inhibition value was measured for COc1ccc(C2c3cc4c(cc3OC(O)C2C)OCO4)cc1 (stereo not given) ?
Outgoing: 42

Incoming: Could you share which growth inhibition value was measured for O=C(NCCCNCCCCNCCCNC(=O)c1cc(-c2ccccc2)nc2ccccc12)c1cc(-c2ccccc2)nc2ccccc12 ?
Outgoing: 98

Incoming: Could you share which growth inhibition value was measured for Cc1cc2c(Br)cc(Br)c(O)c2nc1C(=O)c1ccccc1 ?
Outgoing: 80

Incoming: Could you share which growth inhibition value was measured for O=C1c2ccc(O)cc2C(=O)c2c1ccc(O)c2O ?
Outgoing: 73

Incoming: Could you share which growth inhibition value was measured for C#CC(CC(C)CC(C)(C)C)NC (stereo not given) ?
Outgoing: 53

Incoming: Could you share which growth inhibition value was measured for CCC[CH2][Sn]([CH2]CCC)([O]N(C)C(=O)c1ccc(Br)cc1)[O]N(C)C(=O)c1ccc(Br)cc1 ?
Outgoing: 98

Incoming: Could you share which growth inhibition value was measured for [O-][n+]1c2ccccc2cc2c1c1ccccc1n2O ?
Outgoing: 8

Incoming: Could you share which growth inhibition value was measured for CCN(CC)CCCCCCNc1cc(C)cc2ccc(C)nc12 ?
Outgoing: 36

Incoming: Could you share which growth inhibition value was measured for CNC(=S)N(C)C(=S)Nn1c(=O)c(C)nn(C)c1=S ?
Outgoing: 66

Incoming: Could you share which growth inhibition value was measured for CCOC(=O)Nc1nc2ccc(SC#N)cc2s1 ?
Outgoing: 88

Incoming: Could you share which growth inhibition value was measured for CC1(C)C(=O)C(C(Cl)(Cl)Cl)=C(Cl)C(=O)C1(Cl)Cl ?
Outgoing: 89

Incoming: Could you share which growth inhibition value was measured for Cc1ccc(S(=O)(=O)NCCSCCSCCNS(=O)(=O)c2ccc(C)cc2)cc1 ?
Outgoing: -5

Incoming: Could you share which growth inhibition value was measured for O=P1(O)c2ccccc2CS(=O)(=O)Cc2ccccc21 ?
Outgoing: 29
